Assay: chemical genetic growth profiling, strain panel (AID 1159580);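 note: tested at 20 µM; growth read once vehicle control cultures reached saturation at 30 °C; 1 = growth at the plate median or of vehicle wells; lower values mean less growth of the strain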
Conditions: S. cerevisiae deletion strains, growth OD, locus YGL253W, strain hxk2
Among all 5,500 compounds or so, about 2,000 (36%) were called active. Another 18% or so got no clear call; they are omitted. Cut-off read from the data, not from the text of the source: active = normalized growth mostly below about 0.91 (no sharp cut-off); inconclusive = no clear call, values can overlap the other calls; inactive = mostly above about 0.92. The list shows a part of the results.
Outcome codes: active, inactive

In [3]: df
Out[3]:
                                   molecule  class_label
0  COc1ccc2c(c1)OC/C(=C\c1ccc(OC)c(O)c1)C2=O       active
1                     C#CCCCCCCCCCCCc1ccco1     inactive
2  COc1ccc2c(c1)OC1(O)COc3cc(OC)c(OC)cc3C1=C2 (centres undefined)     inactive
3               CN(C)CCN(Cc1ccccc1)c1ccccn1     inactive
4                   CCN(CC)C(=O)N1CCN(C)CC1     inactive
5       COC(=O)c1cc(=O)c(O)c2c(O)c(O)ccc2c1     inactive
6                 O=C(O)c1cc2cc(F)ccc2[nH]1     inactive
7                CN(C)CCN(Cc1cccs1)c1ccccn1     inactive
8           COc1ccc(CN(CCN(C)C)c2ccccn2)cc1     inactive

====

Test: chemical genetic growth profiling, strain panel (AID 1159580);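 note: tested at 20 µM; growth read once vehicle control cultures reached saturation at 30 °C; 1 = growth at the plate median or of vehicle wells; lower values mean less growth of the strain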
Conditions: S. cerevisiae deletion strains, growth OD, locus YLR113W, strain HOG1, hits give low values
About 2,000 (36%) of roughly 5,500 compounds were called active. Not shown: some 18% with an inconclusive outcome. This is one part of the list.
# maps each entry to its normalized growth
Property measured: normalized growth

                                    compound  reading
 0           COc1cc(Cl)ccc1N/N=C(/C#N)C(N)=O    0.262
 1                             NCCc1cnc[nH]1    0.985
 2                            NCCCS(=O)(=O)O    0.954
 3  O=C(c1ccc(OCCN2CCCCC2)cc1)c1c(-c2ccc(O)cc2)sc2cc(O)ccc12    0.986
 4                            CN1CC(=O)N=C1N     0.94
 5  O=C(/C=C/c1ccc(O)c(O)c1)OC(Cc1ccc(O)c(O)c1)C(=O)O (centres undefined)    0.979
 6  N/C(Cn1ccc(C(F)(F)F)n1)=N/OS(=O)(=O)c1cccc(Cl)c1Cl     1.04
 7  CC1(C)S[C@@H]2[C@H](NC(=O)[C@H](N)c3ccccc3)C(=O)N2[C@H]1C(=O)O     1.04
 8  C=C[C@@](C)(O)CCC1C(=C)CCC2[C@@](C)(CO)CCC[C@]12C (some centres undefined)    0.891
 9  Cc1ccc(S(=O)(=O)NC(=O)Nc2ccc(Sc3ccccc3)nc2Sc2ccccc2)cc1    0.885
10       O=C(/C=C/c1ccc(O)c(O)c1)OCCc1ccccc1    0.862
11           Cc1ncc(CNC(=O)N(CCCl)N=O)c(N)n1    0.982
12  COc1cc([C@@H]2c3cc4c(cc3[C@@H](O)C3COC(=O)C32)OCO4)cc(OC)c1O (some centres undefined)     1.03
13     COc1ccc(C(=O)CC(=O)O)c2c1C=CC(C)(C)O2     1.07
